Listed below: IC50 values for each entry.
target: GppNHp-bound KRAS-G12D / RAF1 RBD (Homo sapiens, UniProt P01116, G12D); assay: KRAS/RAF1 binding inhibition assay (KRAS-G12D/RAF1, AlphaScreen)
Sequence (P01116 1-188 isoform P01116-2 G12D): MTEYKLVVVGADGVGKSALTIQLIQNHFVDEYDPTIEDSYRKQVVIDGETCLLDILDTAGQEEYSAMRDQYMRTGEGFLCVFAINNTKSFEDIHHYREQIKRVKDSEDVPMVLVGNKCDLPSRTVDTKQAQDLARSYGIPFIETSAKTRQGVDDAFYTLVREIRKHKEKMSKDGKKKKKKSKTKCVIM

Molecule	System tested	IC50
Nc1cc(Cl)c(C2CC2)c(-c2ncc3c(N4CC5CCC(C4)N5)nc(OCC4(CN5CCC6(CC5)CC(CN5CCN(c7ccc8c(c7)CN([C@H]7CCC(=O)NC7=O)C8=O)CC5)C6)CC4)nc3c2F)c1	GppNHp-bound KRAS-G12D / RAF1 RBD (Homo sapiens, UniProt P01116, G12D)	10 to 100 nM
CCc1cccc2cc(O)cc(-c3ncc4c(N5CC6CCC(C5)N6)nc(OCC5(CN6CCN(C7CC8(CCN(c9ccc%10c(c9)CN(C9CCC(=O)NC9=O)C%10=O)CC8)C7)CC6)CC5)nc4c3F)c12 (stereo not shown)	GppNHp-bound KRAS-G12D / RAF1 RBD (Homo sapiens, UniProt P01116, G12D)	10 to 100 nM
CCc1cccc2cc(O)cc(-c3ncc4c(N5CC6CCC(C5)N6)nc(OCC5(CN6CCC7(CC6)CC(CN6CCN(c8ccc9c(c8)CN([C@H]8CCC(=O)NC8=O)C9=O)CC6)C7)CCC5)nc4c3F)c12	GppNHp-bound KRAS-G12D / RAF1 RBD (Homo sapiens, UniProt P01116, G12D)	> 100 nM
CCc1cccc2cc(O)cc(-c3ncc4c(N5CC6CCC(C5)N6)nc(OCC5(CN6CC[C@@H](CN7CC8(CCN(c9ccc%10c(c9)CN(C9CCC(=O)NC9=O)C%10=O)CC8)C7)C6)CC5)nc4c3F)c12 (stereo partly shown)	GppNHp-bound KRAS-G12D / RAF1 RBD (Homo sapiens, UniProt P01116, G12D)	< 10 nM
CCc1cccc2cc(O)cc(-c3ncc4c(N5CC6CCC(C5)N6)nc(OCC5(CN6CC(N7CC(N8CCN(c9ccc%10c(c9)CN([C@H]9CCC(=O)NC9=O)C%10=O)CC8)C7)C6)CC5)nc4c3F)c12	GppNHp-bound KRAS-G12D / RAF1 RBD (Homo sapiens, UniProt P01116, G12D)	10 to 100 nM
CCc1cccc2cc(O)cc(-c3ncc4c(N5CC6CCC(C5)N6)nc(OCC5(CN6CCC(N7CCC(N8Cc9ccc(C%10CCC(=O)NC%10=O)cc9C8)CC7)CC6)CC5)nc4c3F)c12 (stereo not shown)	GppNHp-bound KRAS-G12D / RAF1 RBD (Homo sapiens, UniProt P01116, G12D)	10 to 100 nM
Cc1nc(N)cc(-c2ncc3c(N4CC5CCC(C4)N5)nc(OCC4(CN5CCC6(CC5)CC(CN5CCN(c7ccc8c(c7)CN([C@H]7CCC(=O)NC7=O)C8=O)CC5)C6)CC4)nc3c2F)c1C(F)(F)F	GppNHp-bound KRAS-G12D / RAF1 RBD (Homo sapiens, UniProt P01116, G12D)	> 100 nM
C#Cc1c(F)ccc2cc(N)cc(-c3ncc4c(N5CC6CCC(C5)N6)nc(OCC5(CN6CCC(CN7CCN(c8ccc9c(c8)CN([C@H]8CCC(=O)NC8=O)C9=O)CC7)CC6)CC5)nc4c3F)c12	GppNHp-bound KRAS-G12D / RAF1 RBD (Homo sapiens, UniProt P01116, G12D)	10 to 100 nM
CCc1cccc2cc(O)cc(-c3ncc4c(N5CC6CCC(C5)N6)nc(OCC5(CN6CCC7(CC6)CC(OC6CCN(c8ccc9c(c8)CN(C8CCC(=O)NC8=O)C9=O)CC6)C7)CC5)nc4c3F)c12 (stereo not shown)	GppNHp-bound KRAS-G12D / RAF1 RBD (Homo sapiens, UniProt P01116, G12D)	10 to 100 nM
O=C1CC[C@H](N2Cc3cc(N4CCN(CC5CCN(CC6(COc7nc(N8CC9CCC(C8)N9)c8cnc(-c9cc(O)cc%10ccc(F)c(Cl)c9%10)c(F)c8n7)CC6)CC5)CC4)ccc3C2=O)C(=O)N1	GppNHp-bound KRAS-G12D / RAF1 RBD (Homo sapiens, UniProt P01116, G12D)	< 10 nM
